Can you tell me IC50 for the items I'm about to list?
- Assay System: KDR (Homo sapiens)
- Sequence (P35968 20-1356): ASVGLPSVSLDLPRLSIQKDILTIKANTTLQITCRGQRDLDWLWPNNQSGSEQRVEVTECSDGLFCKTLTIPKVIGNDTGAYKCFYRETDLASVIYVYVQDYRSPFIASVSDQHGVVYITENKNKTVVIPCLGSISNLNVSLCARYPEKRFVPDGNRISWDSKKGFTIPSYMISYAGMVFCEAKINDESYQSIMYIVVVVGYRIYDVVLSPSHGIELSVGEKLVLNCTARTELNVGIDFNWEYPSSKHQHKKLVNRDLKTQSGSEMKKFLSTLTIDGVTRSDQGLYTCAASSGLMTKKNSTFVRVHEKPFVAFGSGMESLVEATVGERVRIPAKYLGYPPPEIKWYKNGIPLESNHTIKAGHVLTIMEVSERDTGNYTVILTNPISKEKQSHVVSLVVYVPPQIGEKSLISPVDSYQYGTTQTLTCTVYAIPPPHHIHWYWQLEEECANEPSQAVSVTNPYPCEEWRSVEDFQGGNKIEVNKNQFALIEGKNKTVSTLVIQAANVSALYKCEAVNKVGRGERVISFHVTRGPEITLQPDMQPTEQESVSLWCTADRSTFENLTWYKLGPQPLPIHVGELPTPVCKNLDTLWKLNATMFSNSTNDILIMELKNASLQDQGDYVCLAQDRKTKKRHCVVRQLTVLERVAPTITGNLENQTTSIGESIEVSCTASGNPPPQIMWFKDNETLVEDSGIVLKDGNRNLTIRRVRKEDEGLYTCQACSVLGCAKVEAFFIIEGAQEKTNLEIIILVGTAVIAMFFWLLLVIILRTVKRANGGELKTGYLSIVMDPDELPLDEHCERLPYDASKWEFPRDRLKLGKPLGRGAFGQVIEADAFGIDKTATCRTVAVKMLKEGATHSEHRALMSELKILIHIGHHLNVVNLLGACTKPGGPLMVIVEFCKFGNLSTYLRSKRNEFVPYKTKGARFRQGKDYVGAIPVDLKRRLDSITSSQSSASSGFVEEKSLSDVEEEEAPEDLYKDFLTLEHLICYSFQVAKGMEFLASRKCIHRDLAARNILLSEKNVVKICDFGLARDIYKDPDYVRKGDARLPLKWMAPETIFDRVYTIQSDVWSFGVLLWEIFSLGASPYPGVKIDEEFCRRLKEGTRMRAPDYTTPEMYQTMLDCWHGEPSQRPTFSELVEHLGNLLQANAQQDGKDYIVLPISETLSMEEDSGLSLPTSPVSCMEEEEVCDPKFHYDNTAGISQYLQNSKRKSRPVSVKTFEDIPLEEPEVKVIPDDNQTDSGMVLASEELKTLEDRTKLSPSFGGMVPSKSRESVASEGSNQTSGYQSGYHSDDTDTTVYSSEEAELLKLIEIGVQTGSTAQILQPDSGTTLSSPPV
- Assay Protocol: KDR autophosphorylation ELISA in HUVEC cells
- Format: cell-based
- Parameters: endogenous in cells; host or cells: HUVEC (Lonza #C2519A)
- Condition Info: Table 3 Cellular Activities, VEGF165-stimulated, phospho-KDR ELISA

molecule="COc1cnc2c(Oc3ccc(NC(=O)c4cnc(C)c(-c5ccsc5)c4O)cc3F)ccnc2c1 [Compound 98]" assay_result="≤ 100 nM"
molecule="COc1cnc2c(Oc3ccc(NC(=O)c4ccc(C)n(-c5ncc(F)cc5C)c4=O)cc3F)ccnc2c1 [Compound 52]" assay_result="≤ 100 nM"
molecule="COc1cc2nccc(Oc3ccc(NC(=O)c4c(C)nc(C)c(-c5cc(C(F)(F)F)nn5C)c4O)cc3F)c2nc1OC [Compound 138]" assay_result="≤ 100 nM"
molecule="CCOc1ccn(-c2ccc(F)cn2)c(=O)c1C(=O)Nc1ccc(Oc2ccnc3cc(OC)c(OC)nc23)cc1 [Compound 244]" assay_result="300 to 1000 nM"
molecule="COc1cc2nccc(Oc3ccc(NC(=O)c4cc(C(C)=O)c(C)n(-c5ccoc5)c4=O)cc3F)c2nc1OC [Compound 235]" assay_result="300 to 1000 nM"
molecule="COCc1nc(C)c(-c2ccc(C)o2)c(O)c1C(=O)Nc1ccc(Oc2ccnc3cc(OC)c(OC)nc23)c(F)c1 [Compound 117]" assay_result="≤ 100 nM"

Next up:
The reported value for COc1cc2nccc(Oc3ccc(NC(=O)c4c(C)nc(C)c(-c5cc(C)nn5C)c4O)cc3F)c2nc1OC [Compound 109] in terms of IC50 is ≤ 100 nM
